The entries below are paired with their reported pIC50.
system: SKBR3 (PI3Kα-Wild Type) cell line; assay: HTRF phospho-AKT(S473) cell assay in SKBR3 cells; format: cell-based, human; details: Homo sapiens, SK-BR-3; SKBR3 (PI3Kα-Wild Type) cells, HTRF phospho-AKT(S473), 2 hours compound incubation, PDGF-BB stimulated
pIC50: −log10 of the molar value.
value-kind: pIC50

{"compound": "Cc1cc([C@@H](C)Nc2ccc(Cl)nc2C(=O)NS(C)(=O)=O)c2nc(N3CCC(c4c(F)cnn4C)CC3)n(C)c(=O)c2c1 [Compound 412]", "value-kind": "pIC50", "result": "5.30 to 6.00"}
{"compound": "Cc1cc([C@@H](C)Nc2ccc(Cl)nc2C(=O)NS(C)(=O)=O)c2nc(N3C[C@H]4C[C@@H](c5cnn(C)c5)[C@@H]3C4)n(C)c(=O)c2c1 [Compound 321]", "value-kind": "pIC50", "result": "5.30 to 6.00"}
{"compound": "Cc1cc([C@@H](C)Nc2ccc(Cl)nc2C(=O)NS(C)(=O)=O)c2nc(N3CCC(Oc4ccn(C)n4)CC3)n(C)c(=O)c2c1 [Compound 265]", "value-kind": "pIC50", "result": "5.30 to 6.00"}
{"compound": "CCn1c(N2C[C@@H]3[C@H](C2)[C@H]3c2ccn(C)n2)nc2c([C@@H](C)Nc3ccc(Cl)nc3C(=O)NS(C)(=O)=O)cc(C)cc2c1=O [Compound 432]", "value-kind": "pIC50", "result": "5.30 to 6.00"}
{"compound": "Cc1cc([C@@H](C)Nc2ccc(Cl)nc2S(N)(=O)=O)c2nc(N3Cc4ccc(F)cc4C3)n(C)c(=O)c2c1 [Compound 76]", "value-kind": "pIC50", "result": "5.30 to 6.00"}
{"compound": "COC(=O)NS(=O)(=O)c1nc(Cl)ccc1N[C@H](C)c1cc(C)cc2c(=O)n(C)c(N3Cc4ccc(F)cc4C3)nc12 [Compound 131]", "value-kind": "pIC50", "result": "≤ 5.30"}
